System: OVCAR-4 ovarian
Experiment: NCI-60 one-dose screen, 48 h (100 = growth as untreated, 0 = no growth, -100 = all killed)
Settings: 10 µM
Compounds without any hit were thinned out: in the full panel of roughly 83,000, 20% have a hit.
reported.endpoint: growth (%)
Record the value in %, omitting the unit from your answer.

1. C=CCc1cc(C(C)=O)cc(OC)c1O	107
2. CC(C)(N)COS(=O)(=O)O	105
3. CCS(=O)(=O)CCCl	101
4. Cc1cc2ccccc2c(O)c1C#N	114
5. c1ccc(/C(=N\N=C(/c2ccccc2)c2cccs2)c2cccs2)cc1	97.1
6. CN(C)c1ccc(S(=O)(=O)O)cc1	106
7. CC(C)C1CCCCC1O (stereo not given)	118
8. CC1CCCC(CC(N)=O)CC1 (stereo not given)	108
9. NCCCN	90
10. NC(=S)NN=C1CCCC1	74.4

Now consider the entry below.
Query block: Please look up its growth: CC1(C)Nc2cccc3c(N=Nc4ccc(N=Nc5ccccc5)c5ccccc45)ccc(c23)N1
Result block: 91.1

----------
Tested on: UO-31 renal
Assay: NCI-60 one-dose screen, 48 h (100 = growth as untreated, 0 = no growth, -100 = all killed)
Conditions: 10 µM
About 83,000 compounds went through this panel and 20% of them were active in at least one assay; those are over-represented in the sample as a whole.
Would you mind labelling by growth? At or over 90% is MET, under is NOT MET.

Examples from the recorded data:
1. CN(C)C(=O)Oc1cccc([N+](C)(C)C)c1	MET
2. Cc1cc(N)ccc1-c1ccc(N)cc1C	NOT MET
3. CC(C)=CC(=O)OC(=O)C=C(C)C	MET
4. O=C(O)CCCC(=O)O	NOT MET
5. O=C1c2ccccc2C(=O)c2c1ccc(C(=O)O)c2[N+](=O)[O-]	NOT MET

Query block: Please indicate if the recorded growth for O=C1c2ccccc2C(=O)N1OCc1ccccc1 meets or exceeds 90%.
Result block: NOT MET

Query block: Please indicate if the recorded growth for Cn1cnc2nc(Cl)nc(Cl)c21 meets or exceeds 90%.
Result block: NOT MET

Query block: Please indicate if the recorded growth for C/C=C/CC(C)C(O)C1C(=O)NC(CC)C(=O)N(C)CC(=O)N(C)C(CC(C)C)C(=O)NC(C(C)C)C(=O)N(C)C(CC(C)C)C(=O)NC(C)C(=O)NC(C)C(=O)N(C)C(CC(C)C)C(=O)N(C)C(CC(C)C)C(=O)N(C)C(C(C)C)C(=O)N1C (centres undefined) meets or exceeds 90%.
Result block: NOT MET

----------
Property: growth; scope: individual molecules
Tested on: HCC-2998 colon
Test: NCI-60 one-dose screen, 48 h (100 = growth as untreated, 0 = no growth, -100 = all killed)
Conditions: 10 µM
This is part of a sample that, as a whole, favours compounds with a hit. Of some 83,000 tested, about 20% had one in any assay.
Record the value in %, omitting the unit from your answer.

1) O=C(Nc1cc(-c2ccccc2)[nH]n1)c1ccc(Cl)cc1	100
2) Cc1nc2ccccc2c2nnc(SCC(=O)N(Cc3ccccc3)c3ccccc3)n12	110
3) C#CCSc1nnnn1-c1ccc(Br)c(C)c1	121
4) COc1ccccc1N1CCN(C(=S)Nc2ccccc2)CC1	134
5) COC(=O)/C=C1\Sc2cc(F)ccc2NC1=O	126

Query block: Please look up its growth: COCCOCCCl
Result block: 101

Query block: Please look up its growth: COc1cccc(/C=N/NC(=S)NC2CC3CCC2C3)c1O (configuration not stated)
Result block: 96.3

Query block: Please look up its growth: COc1cc(C(N)=O)cc(OC)c1OC
Result block: 105

Query block: Please look up its growth: S=C(Nc1ccccc1)N1CCCCC1
Result block: 101

Query block: Please look up its growth: COc1ccc(Oc2c(I)cc(CC(NC(C)=O)C(=O)O)cc2I)cc1 (configuration not stated)
Result block: 88

Query block: Please look up its growth: CN(C)Cc1cc(C(C)(C)CC(C)(C)C)ccc1O
Result block: 96.5

Query block: Please look up its growth: N#CCCc1ccc(O)cc1
Result block: 115

Query block: Please look up its growth: C/C(=N\NC(=O)c1ccccc1N)c1ccccc1O
Result block: 67.5
